# System: Escherichia coli
# method: Antibacterial activity against Escherichia coli MTCC 443 assessed as growth inhibition after overnight incubation by NCCLS broth microdilution method
# Type: functional
Kindly state MIC for each of the entries shown.
Lab book: enter the figure in µg/mL, no units written.

Prompt: // MIC lookup, key: CCOC(=O)C1=C(N)N(Nc2ccc(OC)cc2)C2=C(C(=O)CC(C)(C)C2)C1c1cc2cc(C)ccc2nc1Cl (stereo not drawn)
Response: 250

Prompt: // MIC lookup, key: CCOC(=O)C1=C(N)N(Nc2ccc(C)cc2)C2=C(C(=O)CC(C)(C)C2)C1c1cc2cc(OC)ccc2nc1Cl (stereo not drawn)
Response: 125

Prompt: // MIC lookup, key: CCOC(=O)C1=C(N)N(Nc2ccc(Br)cc2)C2=C(C(=O)CC(C)(C)C2)C1c1cc2cc(C)ccc2nc1Cl (stereo not drawn)
Response: 500

Prompt: // MIC lookup, key: CCOC(=O)C1=C(N)N(Nc2ccc(Cl)cc2)C2=C(C(=O)CC(C)(C)C2)C1c1cc2cc(OC)ccc2nc1Cl (stereo not drawn)
Response: 100

Prompt: // MIC lookup, key: CCOC(=O)C1=C(N)N(Nc2ccc(OC)cc2)C2=C(C(=O)CC(C)(C)C2)C1c1cc2ccccc2nc1Cl (stereo not drawn)
Response: 50

Prompt: // MIC lookup, key: CCOC(=O)C1=C(N)N(Nc2ccccc2)C2=C(C(=O)CC(C)(C)C2)C1c1cc2cc(Cl)ccc2nc1Cl (stereo not drawn)
Response: 125

Prompt: // MIC lookup, key: CCOC(=O)C1=C(N)N(Nc2ccc(F)cc2)C2=C(C(=O)CC(C)(C)C2)C1c1cc2ccccc2nc1Cl (stereo not drawn)
Response: 100

Prompt: // MIC lookup, key: CCOC(=O)C1=C(N)N(Nc2ccccc2)C2=C(C(=O)CC(C)(C)C2)C1c1cc2cc(OC)ccc2nc1Cl (stereo not drawn)
Response: 250
